Entry source: ChEMBL document CHEMBL1147677

studySystem: Tissue alpha-L-fucosidase (Bos taurus, UniProt Q2KIM0)
Sequence (Q2KIM0 whole entry): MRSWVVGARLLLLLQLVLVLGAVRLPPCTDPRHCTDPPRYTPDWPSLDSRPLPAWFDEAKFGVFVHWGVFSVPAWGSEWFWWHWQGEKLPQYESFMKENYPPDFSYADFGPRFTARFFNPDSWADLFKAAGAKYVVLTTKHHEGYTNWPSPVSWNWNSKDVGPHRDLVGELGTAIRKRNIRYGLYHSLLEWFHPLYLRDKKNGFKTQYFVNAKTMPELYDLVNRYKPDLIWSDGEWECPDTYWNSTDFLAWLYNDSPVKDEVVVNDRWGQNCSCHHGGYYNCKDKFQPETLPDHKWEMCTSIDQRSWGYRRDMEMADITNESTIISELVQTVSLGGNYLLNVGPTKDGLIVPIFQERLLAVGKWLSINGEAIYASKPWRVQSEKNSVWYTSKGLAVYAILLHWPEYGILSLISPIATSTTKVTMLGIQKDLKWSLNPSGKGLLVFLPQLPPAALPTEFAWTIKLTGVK
pKi: −log10 of the molar value.
experimentalReadout: pKi

Which pKi is reported with Tissue alpha-L-fucosidase (Bos taurus, UniProt Q2KIM0) for this entry: C[C@H]1NC[C@H](O)[C@@H](O)C1(F)F ?
< 3.00

---

methodDescription: Dissociation constant, pKa of the compound
Type: physicochemical
experimentalReadout: pKa
# print the numeric value only

Data request, read-out pKa, for OC[C@H]1NC[C@@H](O)[C@@H](O)C1(F)F
5.3

---

pKi: −log10 of the molar value.
experimentalReadout: pKi

Can you look up pKi on UniProt Q5DUH8 for C[C@H]1NC[C@H](O)[C@@H](O)C1(F)F ?
< 3.00
